Source of measurements: paper PMC5855800

- Format: binding
- CONDITIONS USED: pH 5.0
MEASUREMENT KIND: Gibbs binding free energy ΔGx^0 (kcal/mol)

- CC[C@H](C)[C@H](NC(=O)[C@H](C)NC(=O)CNC(=O)[C@H](Cc1ccccc1)NC(=O)[C@H](CC(C)C)NC(=O)CNC(C)=O)C(=O)N[C@@H](C)C(=O)NCC(=O)N[C@@H](Cc1ccccc1)C(=O)N[C@H](C(=O)N[C@@H](CCC(=O)O)C(=O)NCC(=O)NCC(=O)N[C@@H](Cc1c[nH]c2ccccc12)C(=O)N[C@@H](CCC(N)=O)C(=O)NCC(=O)N[C@@H](CCSC)C(=O)N[C@H](C(=O)N[C@@H](CC(=O)O)C(=O)NCC(=O)N[C@@H](Cc1c[nH]c2ccccc12)C(=O)N[C@@H](Cc1ccc(O)cc1)C(=O)NCC(N)=O)C(C)C)[C@@H](C)CC [23Ac]: -8.41
